Reference for the values: ChEMBL document CHEMBL1149281

- Test system: Klebsiella pneumoniae
- assay.summary: Antimicrobial activity against Klebsiella pneumoniae GC 2825 in presence of 4 ug/mL piperacillin
- Format: functional

[
  {
    "molecule": "C[C@]1(Cn2ccnn2)[C@H](C(=O)[O-])N2C(=O)C[C@H]2S1(=O)=O.[Na+] [TAZOBACTAM SODIUM]",
    "units": "µg/mL",
    "comparison.operator": ">",
    "MIC": 64
  },
  {
    "molecule": "Cc1ccc2c(c1)sc1nc(/C=C3/C(=O)N4C(C(=O)[O-])=CS[C@H]34)cn12.[Na+]",
    "units": "µg/mL",
    "comparison.operator": "=",
    "MIC": 8
  },
  {
    "molecule": "Cc1cccc2sc3nc(/C=C4/C(=O)N5C(C(=O)[O-])=CS[C@H]45)cn3c12.[Na+]",
    "units": "µg/mL",
    "comparison.operator": "=",
    "MIC": 16
  },
  {
    "molecule": "COc1ccc2c(c1)sc1nc(/C=C3/C(=O)N4C(C(=O)[O-])=CS[C@H]34)cn12.[Na+]",
    "units": "µg/mL",
    "comparison.operator": "=",
    "MIC": 64
  },
  {
    "molecule": "O=C([O-])C1=CS[C@@H]2/C(=C\\c3cn4c(n3)sc3ccccc34)C(=O)N12.[Na+]",
    "units": "µg/mL",
    "comparison.operator": "=",
    "MIC": 16
  },
  {
    "molecule": "O=C([O-])C1=CS[C@@H]2/C(=C\\c3cn4c(n3)sc3cc(F)ccc34)C(=O)N12.[Na+]",
    "units": "µg/mL",
    "comparison.operator": "=",
    "MIC": 16
  },
  {
    "molecule": "O=C([O-])C1=CS[C@@H]2/C(=C\\c3cn4c5c(sc4n3)CCC5)C(=O)N12.[Na+]",
    "units": "µg/mL",
    "comparison.operator": "=",
    "MIC": 4
  },
  {
    "molecule": "O=C([O-])C1=CS[C@@H]2/C(=C\\c3cn4c(n3)sc3cc(Cl)ccc34)C(=O)N12.[Na+]",
    "units": "µg/mL",
    "comparison.operator": "=",
    "MIC": 32
  }
]

---

- Test system: Escherichia coli
- assay.summary: Antimicrobial activity against Escherichia coli GC 2252 expressing IRT2 in presence of 4 ug/mL piperacillin
- Assay type: functional

[
  {
    "compound": "C[C@]1(Cn2ccnn2)[C@H](C(=O)[O-])N2C(=O)C[C@H]2S1(=O)=O.[Na+] [TAZOBACTAM SODIUM]",
    "subject.of.test": "Escherichia coli",
    "MIC": "2 mg/L"
  },
  {
    "compound": "O=C([O-])C1=CS[C@@H]2/C(=C\\c3cn4c(n3)sc3cc(Cl)ccc34)C(=O)N12.[Na+]",
    "subject.of.test": "Escherichia coli",
    "MIC": "16 mg/L"
  },
  {
    "compound": "O=C([O-])C1=CS[C@@H]2/C(=C\\c3cn4c(n3)sc3cc(F)ccc34)C(=O)N12.[Na+]",
    "subject.of.test": "Escherichia coli",
    "MIC": "16 mg/L"
  },
  {
    "compound": "Cc1cccc2sc3nc(/C=C4/C(=O)N5C(C(=O)[O-])=CS[C@H]45)cn3c12.[Na+]",
    "subject.of.test": "Escherichia coli",
    "MIC": "16 mg/L"
  }
]

---

# IC50 per entry
- subject.of.test: Beta-lactamase TEM (Escherichia coli, UniProt P62593)
- Sequence (P62593 whole entry): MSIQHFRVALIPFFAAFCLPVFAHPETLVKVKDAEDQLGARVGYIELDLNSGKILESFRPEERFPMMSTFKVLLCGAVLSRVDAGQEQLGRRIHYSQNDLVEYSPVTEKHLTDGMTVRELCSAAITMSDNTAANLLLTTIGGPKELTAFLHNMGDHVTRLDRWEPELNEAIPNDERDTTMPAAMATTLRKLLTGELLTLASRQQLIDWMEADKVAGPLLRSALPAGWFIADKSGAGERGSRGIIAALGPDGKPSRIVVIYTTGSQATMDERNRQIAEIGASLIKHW
- assay.summary: Inhibition of Escherichia coli TEM1

[
  {
    "smiles.input": "O=C([O-])C1=CS[C@@H]2/C(=C\\c3cn4c(n3)sc3cc(Cl)ccc34)C(=O)N12.[Na+]",
    "IC50 [nM]": 6
  },
  {
    "smiles.input": "Cc1ccc2c(c1)sc1nc(/C=C3/C(=O)N4C(C(=O)[O-])=CS[C@H]34)cn12.[Na+]",
    "IC50 [nM]": 3
  },
  {
    "smiles.input": "O=C([O-])C1=CS[C@@H]2/C(=C\\c3cn4c(n3)sc3cc(F)ccc34)C(=O)N12.[Na+]",
    "IC50 [nM]": 8
  },
  {
    "smiles.input": "Cc1cccc2sc3nc(/C=C4/C(=O)N5C(C(=O)[O-])=CS[C@H]45)cn3c12.[Na+]",
    "IC50 [nM]": 9
  }
]

---

- System: Serratia marcescens
- assay.summary: Antimicrobial activity against Serratia marcescens GC 1781 expressing Sme1 and AmpC in presence of 4 ug/mL piperacillin
- Format: functional
# MIC per entry

[
  {
    "molecule": "O=C([O-])C1=CS[C@@H]2/C(=C\\c3cn4c(n3)sc3cc(Cl)ccc34)C(=O)N12.[Na+]",
    "subject.of.test": "Serratia marcescens",
    "MIC [µg/mL]": 1
  },
  {
    "molecule": "C[C@]1(Cn2ccnn2)[C@H](C(=O)[O-])N2C(=O)C[C@H]2S1(=O)=O.[Na+] [TAZOBACTAM SODIUM]",
    "subject.of.test": "Serratia marcescens",
    "MIC [µg/mL]": 1
  },
  {
    "molecule": "O=C([O-])C1=CS[C@@H]2/C(=C\\c3cn4c5c(sc4n3)CCC5)C(=O)N12.[Na+]",
    "subject.of.test": "Serratia marcescens",
    "MIC [µg/mL]": 1
  },
  {
    "molecule": "O=C([O-])C1=CS[C@@H]2/C(=C\\c3cn4c(n3)sc3cc(F)ccc34)C(=O)N12.[Na+]",
    "subject.of.test": "Serratia marcescens",
    "MIC [µg/mL]": 2
  }
]

---

# MIC per entry
- Tested on: Escherichia coli
- assay.summary: Antimicrobial activity against Escherichia coli GC 2203 in presence of 4 ug/mL piperacillin
- Assay type: functional
observable: MIC (µg/mL)

[
  {
    "compound": "Cc1cccc2sc3nc(/C=C4/C(=O)N5C(C(=O)[O-])=CS[C@H]45)cn3c12.[Na+]",
    "observable": "MIC",
    "comparison.operator": "=",
    "experimental.value": 2
  },
  {
    "compound": "O=C([O-])C1=CS[C@@H]2/C(=C\\c3cn4c(n3)sc3cc(Cl)ccc34)C(=O)N12.[Na+]",
    "observable": "MIC",
    "comparison.operator": "=",
    "experimental.value": 1
  },
  {
    "compound": "O=C([O-])C1=CS[C@@H]2/C(=C\\c3cn4c(n3)sc3ccccc34)C(=O)N12.[Na+]",
    "observable": "MIC",
    "comparison.operator": "=",
    "experimental.value": 2
  },
  {
    "compound": "COc1ccc2c(c1)sc1nc(/C=C3/C(=O)N4C(C(=O)[O-])=CS[C@H]34)cn12.[Na+]",
    "observable": "MIC",
    "comparison.operator": "=",
    "experimental.value": 1
  },
  {
    "compound": "O=C([O-])C1=CS[C@@H]2/C(=C\\c3cn4c5c(sc4n3)CCC5)C(=O)N12.[Na+]",
    "observable": "MIC",
    "comparison.operator": "=",
    "experimental.value": 2
  },
  {
    "compound": "C[C@]1(Cn2ccnn2)[C@H](C(=O)[O-])N2C(=O)C[C@H]2S1(=O)=O.[Na+] [TAZOBACTAM SODIUM]",
    "observable": "MIC",
    "comparison.operator": ">",
    "experimental.value": 64
  },
  {
    "compound": "O=C([O-])C1=CS[C@@H]2/C(=C\\c3cn4c(n3)sc3cc(F)ccc34)C(=O)N12.[Na+]",
    "observable": "MIC",
    "comparison.operator": "=",
    "experimental.value": 2
  },
  {
    "compound": "Cc1ccc2c(c1)sc1nc(/C=C3/C(=O)N4C(C(=O)[O-])=CS[C@H]34)cn12.[Na+]",
    "observable": "MIC",
    "comparison.operator": "=",
    "experimental.value": 1
  }
]

---

Reported values: pIC50 for Beta-lactamase (Enterobacter cloacae), one per item.
pIC50: −log10 of the molar value.

[
  {
    "smiles.input": "O=C([O-])C1=CS[C@@H]2/C(=C\\c3cn4c5c(sc4n3)CCC5)C(=O)N12.[Na+]",
    "subject.of.test": "Beta-lactamase (Enterobacter cloacae)",
    "pIC50": 8.70
  },
  {
    "smiles.input": "O=C([O-])C1=CS[C@@H]2/C(=C\\c3cn4c(n3)sc3cc(Cl)ccc34)C(=O)N12.[Na+]",
    "subject.of.test": "Beta-lactamase (Enterobacter cloacae)",
    "pIC50": 8.52
  },
  {
    "smiles.input": "COc1ccc2c(c1)sc1nc(/C=C3/C(=O)N4C(C(=O)[O-])=CS[C@H]34)cn12.[Na+]",
    "subject.of.test": "Beta-lactamase (Enterobacter cloacae)",
    "pIC50": 8.70
  },
  {
    "smiles.input": "O=C([O-])C1=CS[C@@H]2/C(=C\\c3cn4c(n3)sc3cc(F)ccc34)C(=O)N12.[Na+]",
    "subject.of.test": "Beta-lactamase (Enterobacter cloacae)",
    "pIC50": 8.70
  },
  {
    "smiles.input": "Cc1cccc2sc3nc(/C=C4/C(=O)N5C(C(=O)[O-])=CS[C@H]45)cn3c12.[Na+]",
    "subject.of.test": "Beta-lactamase (Enterobacter cloacae)",
    "pIC50": 8.70
  },
  {
    "smiles.input": "Cc1ccc2c(c1)sc1nc(/C=C3/C(=O)N4C(C(=O)[O-])=CS[C@H]34)cn12.[Na+]",
    "subject.of.test": "Beta-lactamase (Enterobacter cloacae)",
    "pIC50": 9.00
  },
  {
    "smiles.input": "O=C([O-])C1=CS[C@@H]2/C(=C\\c3cn4c(n3)sc3ccccc34)C(=O)N12.[Na+]",
    "subject.of.test": "Beta-lactamase (Enterobacter cloacae)",
    "pIC50": 9.00
  }
]
